The values you see were collected from patent US20170114140A1.

Target: human IL-17RA on cells (human PBMC; human foreskin fibroblasts) (human, UniProt Q96F46 33-866)
Assay: cell-based or functional assay
// values below are reported % Inhib. of IL-5 production (TSLP treated human PBMC + IL-2 + IL-25), Expt. 3
measurement type: % Inhib. of IL-5 production (TSLP treated human PBMC + IL-2 + IL-25), Expt. 3 (%)

- binder: "4.393.1 (antibody, V domains shown) VH: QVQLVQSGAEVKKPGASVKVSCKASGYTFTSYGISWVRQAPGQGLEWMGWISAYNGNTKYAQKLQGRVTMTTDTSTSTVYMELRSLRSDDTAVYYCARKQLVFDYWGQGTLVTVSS VL: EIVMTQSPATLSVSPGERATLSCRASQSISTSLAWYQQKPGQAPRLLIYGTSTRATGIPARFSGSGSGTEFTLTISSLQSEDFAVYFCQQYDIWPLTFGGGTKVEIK"
  reading: 45
- binder: "2.98.1 (antibody, V domains shown) VH: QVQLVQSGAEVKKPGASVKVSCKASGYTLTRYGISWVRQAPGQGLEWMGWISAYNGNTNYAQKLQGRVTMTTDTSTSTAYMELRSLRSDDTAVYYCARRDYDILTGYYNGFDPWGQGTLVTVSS VL: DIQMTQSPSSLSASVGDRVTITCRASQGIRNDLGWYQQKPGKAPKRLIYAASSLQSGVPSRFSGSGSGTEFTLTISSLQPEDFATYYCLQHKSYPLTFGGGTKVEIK"
  reading: 0
